All figures here come from patent US9115137B2.

Target: human recombinant histamine H1 receptor (Homo sapiens)
Construct: expressed in transfected cells; host or cells: CHO cells
Sequence (P35367 whole entry): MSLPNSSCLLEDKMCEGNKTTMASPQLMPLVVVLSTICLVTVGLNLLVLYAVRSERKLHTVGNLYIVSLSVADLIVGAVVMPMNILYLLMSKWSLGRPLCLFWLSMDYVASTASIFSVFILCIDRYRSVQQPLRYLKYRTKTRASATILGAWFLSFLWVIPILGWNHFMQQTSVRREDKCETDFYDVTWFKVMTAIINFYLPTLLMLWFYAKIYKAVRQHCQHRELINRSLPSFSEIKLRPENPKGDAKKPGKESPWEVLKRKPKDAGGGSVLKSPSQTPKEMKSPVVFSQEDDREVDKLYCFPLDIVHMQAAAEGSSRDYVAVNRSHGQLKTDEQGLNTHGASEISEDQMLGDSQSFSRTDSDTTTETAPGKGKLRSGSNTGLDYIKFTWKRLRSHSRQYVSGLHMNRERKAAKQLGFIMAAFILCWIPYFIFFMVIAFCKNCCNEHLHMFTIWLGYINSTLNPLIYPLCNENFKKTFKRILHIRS
Assay: Histamine H1 radioligand binding ([3H]Pyrilamine)
Settings: compound at 1 μM; CHO cells; read-out: Histamine Binding (1 μM) H1, percent inhibition of specific binding
Protocol: To evaluate in radioligand binding assays the activity of compounds of the invention, human recombinant histamine H1 receptor expressed in Chinese hamster ovary (CHO) cells (De Backer, M. D. et al., Biochem. Biophys. Res. Comm. 197(3):1601, 1993) in a modified Tris-HCl buffer (50 mM Tris-HCl, pH 7.4, 2 mM MgCl2, 100 mM NaCl, 250 mM Sucrose) was used. […] Receptor proteins were filtered and washed, the filters were then counted to determine [^3H]Pyrilamine specifically bound. […]
Could you please classify the records by inhibition at 1 µM using these ranges: class A = under 60%, class B = from 60% up to 90%, class C = 90% and over

MOL_SMILES | GROUP
Cc1ccc2c(c1)c1c(n2CCBr)CCN(C)C1 | class C
CNC(=O)CCn1c2c(c3cc(C)ccc31)CN(C)CC2 | class A
Cc1ccc2c(c1)c1c(n2CC(=O)NCc2ccccc2)CCN(C)C1 | class B
Cc1ccc2c(c1)c1c(n2CCNC(=O)OCC(Cl)(Cl)Cl)CCN(C)C1 | class C
Cc1ccc2c(c1)c1c(n2CCNC(=O)c2ccncc2)CCN(C)C1 | class A
Cc1ccc2c(c1)c1c(n2CCC(=O)Nc2ccccc2)CCN(C)C1 | class B
CN1CCc2c(c3cc(Cl)ccc3n2CCC#N)C1 | class C
Cc1ccc2c(c1)c1c(n2CCNC(=O)C2CCNCC2)CCN(C)C1 | class A

* * *

test system: rat central imidazoline I2 receptor; assay: Central imidazoline I2 radioligand binding ([3H]Idazoxan); conditions: compound at 1 μM; Wistar Rat cerebral cortex
Below, each entry is listed with its recorded Imidazoline I2 Central (1 μM), percent inhibition of specific binding.
ATTRIBUTE_MEASURED: Imidazoline I2 Central (1 μM), percent inhibition of specific binding (%)

MOLECULE | TARGET_DESC | MEASURE_UNIT | ENDPOINT_RESULT
Cc1ccc2c(c1)c1c(n2CCC(=O)NC2CCCCC2)CCN(C)C1 | rat central imidazoline I2 receptor | % | 27
Cc1ccc2c(c1)c1c(n2CCC(=O)O)CCN(C)C1 | rat central imidazoline I2 receptor | % | 3
Cc1ccc2c(c1)c1c(n2CCN)CCN(C)C1 | rat central imidazoline I2 receptor | % | 13
CN1CCc2c(c3cc(Cl)ccc3n2CCC(=O)O)C1 | rat central imidazoline I2 receptor | % | 3
Cc1ccc2c(c1)c1c(n2CCC(=O)NC2CCCC2)CCN(C)C1 | rat central imidazoline I2 receptor | % | 54
Cc1ccc2c(c1)c1c(n2CCC(=O)Nc2ccc(F)cc2)CCN(C)C1 | rat central imidazoline I2 receptor | % | 47
Cc1ccc2c(c1)c1c(n2CCNC(=O)C2CCCNC2)CCN(C)C1 (centres unmarked) | rat central imidazoline I2 receptor | % | 9
Cc1ccc2c(c1)c1c(n2CCNC(=O)c2ccncc2)CCN(C)C1 | rat central imidazoline I2 receptor | % | 24
Cc1ccc2c(c1)c1c(n2CC(=O)NC(C)C)CCN(C)C1 | rat central imidazoline I2 receptor | % | 1
Cc1ccc2c(c1)c1c(n2CCNC(=O)C(C)C)CCN(C)C1 | rat central imidazoline I2 receptor | % | 40
Cc1ccc2c(c1)c1c(n2CCNC(=O)OCC(Cl)(Cl)Cl)CCN(C)C1 | rat central imidazoline I2 receptor | % | 57
CN1CCc2c(c3cc(Cl)ccc3n2CC(=O)NC2CCCC2)C1 | rat central imidazoline I2 receptor | % | 8
CN1CCc2c(c3cc(Cl)ccc3n2CC(=O)N(C)C)C1 | rat central imidazoline I2 receptor | % | 18
CCCCOC(=O)Cn1c2c(c3cc(Cl)ccc31)CN(C)CC2 | rat central imidazoline I2 receptor | % | 14
CCNC(=O)Cn1c2c(c3cc(C)ccc31)CN(C)CC2 | rat central imidazoline I2 receptor | % | 51
CN1CCc2c(c3cc(Cl)ccc3n2CC(N)=O)C1 | rat central imidazoline I2 receptor | % | 24
Cc1ccc2c(c1)c1c(n2CCC(=O)NCC2CCCCC2)CCN(C)C1 | rat central imidazoline I2 receptor | % | 61
CN1CCc2c(c3cc(Cl)ccc3n2CC(=O)O)C1 | rat central imidazoline I2 receptor | % | 28
CN1CCc2c(c3cc(Cl)ccc3n2CCC(=O)N(C)C)C1 | rat central imidazoline I2 receptor | % | 58
CCOC(=O)CCCn1c2c(c3cc(C)ccc31)CN(C)CC2 | rat central imidazoline I2 receptor | % | 53
Cc1ccc2c(c1)c1c(n2CC(=O)NCc2ccccc2)CCN(C)C1 | rat central imidazoline I2 receptor | % | 18
CN1CCc2c(c3cc(Cl)ccc3n2CC(=O)OC2CCCC2)C1 | rat central imidazoline I2 receptor | % | 23
CN1CCc2c(c3cc(Cl)ccc3n2CC(=O)OCc2ccccc2)C1 | rat central imidazoline I2 receptor | % | 16
Cc1ccc2c(c1)c1c(n2CC#N)CCN(C)C1 | rat central imidazoline I2 receptor | % | 60
Cc1ccc2c(c1)c1c(n2CCC(=O)NCc2ccccc2)CCN(C)C1 | rat central imidazoline I2 receptor | % | 64
Cc1ccc2c(c1)c1c(n2CCNC(=O)C2CCNCC2)CCN(C)C1 | rat central imidazoline I2 receptor | % | 23
CCOC(=O)Cn1c2c(c3cc(Cl)ccc31)CN(C)CC2 | rat central imidazoline I2 receptor | % | 25
Cc1ccc2c(c1)c1c(n2CC(=O)O)CCN(C)C1 | rat central imidazoline I2 receptor | % | 3
CN1CCc2c(c3cc(Cl)ccc3n2CCC(=O)NC2CCCC2)C1 | rat central imidazoline I2 receptor | % | 33
Cc1ccc2c(c1)c1c(n2CCNC(=O)c2ccc(F)cc2Cl)CCN(C)C1 | rat central imidazoline I2 receptor | % | 41
CC(C)OC(=O)Cn1c2c(c3cc(Cl)ccc31)CN(C)CC2 | rat central imidazoline I2 receptor | % | 5
CCNC(=O)CCn1c2c(c3cc(C)ccc31)CN(C)CC2 | rat central imidazoline I2 receptor | % | 8
Cc1ccc2c(c1)c1c(n2CCNC(=O)C2CCCCC2)CCN(C)C1 | rat central imidazoline I2 receptor | % | 42
Cc1ccc2c(c1)c1c(n2CC(=O)Nc2ccc(F)cc2)CCN(C)C1 | rat central imidazoline I2 receptor | % | 12
CCNC(=O)CCCn1c2c(c3cc(C)ccc31)CN(C)CC2 | rat central imidazoline I2 receptor | % | 52
Cc1ccc2c(c1)c1c(n2CC(N)=O)CCN(C)C1 | rat central imidazoline I2 receptor | % | 16
CCOC(=O)CCn1c2c(c3cc(Cl)ccc31)CN(C)CC2 | rat central imidazoline I2 receptor | % | 62
CN1CCc2c(c3cc(Cl)ccc3n2CC(=O)NC2CCCCC2)C1 | rat central imidazoline I2 receptor | % | 6
CNC(=O)CCn1c2c(c3cc(C)ccc31)CN(C)CC2 | rat central imidazoline I2 receptor | % | 18
CCOC(=O)CCn1c2c(c3cc(C)ccc31)CN(C)CC2 | rat central imidazoline I2 receptor | % | 55
C#CCn1c2c(c3cc(C)ccc31)CN(C)CC2 | rat central imidazoline I2 receptor | % | 73
